Biological target: mouse GCGR (full-length, on HEK293 reporter cells) (mouse, UniProt Q61606 27-485)
Sequence (Q61606 27-485 limits assumed): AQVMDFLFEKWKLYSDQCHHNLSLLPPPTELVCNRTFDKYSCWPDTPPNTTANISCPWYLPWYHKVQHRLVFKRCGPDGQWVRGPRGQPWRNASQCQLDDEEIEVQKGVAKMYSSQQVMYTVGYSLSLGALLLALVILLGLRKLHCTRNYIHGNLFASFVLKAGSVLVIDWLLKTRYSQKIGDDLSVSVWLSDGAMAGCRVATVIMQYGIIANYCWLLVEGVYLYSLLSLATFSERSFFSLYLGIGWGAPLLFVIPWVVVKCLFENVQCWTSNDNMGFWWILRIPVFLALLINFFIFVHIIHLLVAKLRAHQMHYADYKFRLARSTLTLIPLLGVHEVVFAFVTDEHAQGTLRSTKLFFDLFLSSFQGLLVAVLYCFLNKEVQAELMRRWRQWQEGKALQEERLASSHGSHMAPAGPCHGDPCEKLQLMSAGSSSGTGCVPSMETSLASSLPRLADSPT
Experiment: cell-based or functional assay
Each entry below carries its recorded IC50, inhibition of 100 pM GCG-stimulated luciferase activity, mGCGR reporter cells.
Numeric answer only, unit nM assumed.

Example results:
Query string: Query: IC50, inhibition of 100 pM GCG-stimulated luciferase activity, mGCGR reporter cells; subject: H4H1331P (antibody, V domains shown, Fully human anti-GCGR antibody; the controls are called isotype-matched hIgG4) VH: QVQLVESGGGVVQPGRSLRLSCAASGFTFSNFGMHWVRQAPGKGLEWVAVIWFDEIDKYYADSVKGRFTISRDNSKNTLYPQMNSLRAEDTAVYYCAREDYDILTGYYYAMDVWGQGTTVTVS VL: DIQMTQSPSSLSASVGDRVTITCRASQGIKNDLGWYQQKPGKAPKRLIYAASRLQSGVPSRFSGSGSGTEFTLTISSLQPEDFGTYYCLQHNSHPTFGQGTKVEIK
Result string: 1.62

Query string: Query: IC50, inhibition of 100 pM GCG-stimulated luciferase activity, mGCGR reporter cells; subject: H4H1327P (antibody, V domains shown, also called anti-GCGR (hIgG4) antibody designated H4H1327P) VH: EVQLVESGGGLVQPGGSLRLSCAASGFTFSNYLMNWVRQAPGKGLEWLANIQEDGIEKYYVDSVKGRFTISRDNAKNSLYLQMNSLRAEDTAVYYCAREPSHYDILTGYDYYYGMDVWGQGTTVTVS VL: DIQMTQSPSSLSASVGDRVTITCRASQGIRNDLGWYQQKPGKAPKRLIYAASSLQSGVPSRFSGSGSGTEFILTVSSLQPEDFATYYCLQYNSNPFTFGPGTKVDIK
Result string: 1.04

Query string: Query: IC50, inhibition of 100 pM GCG-stimulated luciferase activity, mGCGR reporter cells; subject: H4H1339P (antibody, V domains shown, Fully human anti-GCGR antibody; the controls are called isotype-matched hIgG4) VH: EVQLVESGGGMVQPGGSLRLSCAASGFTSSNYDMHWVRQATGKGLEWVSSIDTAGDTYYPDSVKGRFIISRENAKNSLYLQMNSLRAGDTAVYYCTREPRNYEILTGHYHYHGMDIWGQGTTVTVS VL: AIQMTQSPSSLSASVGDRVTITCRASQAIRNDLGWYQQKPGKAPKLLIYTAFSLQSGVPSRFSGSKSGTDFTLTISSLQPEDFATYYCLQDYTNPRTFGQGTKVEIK
Result string: 1.6

Query string: Query: IC50, inhibition of 100 pM GCG-stimulated luciferase activity, mGCGR reporter cells; subject: H4H1321P (antibody, V domains shown, Fully human anti-GCGR antibody; the controls are called isotype-matched hIgG4) VH: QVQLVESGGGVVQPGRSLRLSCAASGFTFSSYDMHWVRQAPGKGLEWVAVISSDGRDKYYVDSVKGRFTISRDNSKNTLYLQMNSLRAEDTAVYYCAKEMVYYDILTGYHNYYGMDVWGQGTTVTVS VL: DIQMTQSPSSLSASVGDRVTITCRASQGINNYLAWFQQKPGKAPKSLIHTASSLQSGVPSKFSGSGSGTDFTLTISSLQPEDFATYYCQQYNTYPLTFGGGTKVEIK
Result string: 1.13

More entries:
Query string: Query: IC50, inhibition of 100 pM GCG-stimulated luciferase activity, mGCGR reporter cells; subject: H4H1328P (antibody, V domains shown, Fully human anti-GCGR antibody; the controls are called isotype-matched hIgG4) VH: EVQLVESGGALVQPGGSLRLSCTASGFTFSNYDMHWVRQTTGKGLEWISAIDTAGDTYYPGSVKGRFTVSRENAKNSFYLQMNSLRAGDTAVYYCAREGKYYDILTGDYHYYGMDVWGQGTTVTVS VL: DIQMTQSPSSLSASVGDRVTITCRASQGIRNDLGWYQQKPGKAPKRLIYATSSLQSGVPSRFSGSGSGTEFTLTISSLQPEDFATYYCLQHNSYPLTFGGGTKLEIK
Result string: 1.26

Data origin, for the record: patent US20130251728A1
